The reported measurements were obtained from patent US20140113874A1.

target: UniProt P01024; assay: Biacore SPR kinetic analysis on captured biotinylated C3b; settings: 1:1 binding model; average of multiple datasets
Sequence (P01024 23-667 limits assumed): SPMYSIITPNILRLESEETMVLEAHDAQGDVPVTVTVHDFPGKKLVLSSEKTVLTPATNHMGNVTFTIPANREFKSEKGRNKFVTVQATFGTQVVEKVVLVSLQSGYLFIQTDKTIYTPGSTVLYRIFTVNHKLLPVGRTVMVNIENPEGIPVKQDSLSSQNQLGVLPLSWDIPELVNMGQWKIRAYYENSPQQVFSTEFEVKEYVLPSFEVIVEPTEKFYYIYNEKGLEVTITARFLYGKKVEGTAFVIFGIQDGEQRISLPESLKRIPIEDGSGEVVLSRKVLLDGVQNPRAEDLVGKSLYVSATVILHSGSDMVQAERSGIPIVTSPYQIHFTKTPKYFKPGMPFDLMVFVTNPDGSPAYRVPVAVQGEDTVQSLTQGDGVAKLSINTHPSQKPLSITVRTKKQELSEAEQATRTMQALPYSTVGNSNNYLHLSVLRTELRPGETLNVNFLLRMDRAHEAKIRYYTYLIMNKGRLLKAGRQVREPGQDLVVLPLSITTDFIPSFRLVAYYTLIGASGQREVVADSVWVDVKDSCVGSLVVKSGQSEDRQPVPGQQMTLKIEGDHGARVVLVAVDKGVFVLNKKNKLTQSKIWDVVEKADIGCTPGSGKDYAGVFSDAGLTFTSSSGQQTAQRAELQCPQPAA
Sequence (P01024 749-1663 partner limits assumed): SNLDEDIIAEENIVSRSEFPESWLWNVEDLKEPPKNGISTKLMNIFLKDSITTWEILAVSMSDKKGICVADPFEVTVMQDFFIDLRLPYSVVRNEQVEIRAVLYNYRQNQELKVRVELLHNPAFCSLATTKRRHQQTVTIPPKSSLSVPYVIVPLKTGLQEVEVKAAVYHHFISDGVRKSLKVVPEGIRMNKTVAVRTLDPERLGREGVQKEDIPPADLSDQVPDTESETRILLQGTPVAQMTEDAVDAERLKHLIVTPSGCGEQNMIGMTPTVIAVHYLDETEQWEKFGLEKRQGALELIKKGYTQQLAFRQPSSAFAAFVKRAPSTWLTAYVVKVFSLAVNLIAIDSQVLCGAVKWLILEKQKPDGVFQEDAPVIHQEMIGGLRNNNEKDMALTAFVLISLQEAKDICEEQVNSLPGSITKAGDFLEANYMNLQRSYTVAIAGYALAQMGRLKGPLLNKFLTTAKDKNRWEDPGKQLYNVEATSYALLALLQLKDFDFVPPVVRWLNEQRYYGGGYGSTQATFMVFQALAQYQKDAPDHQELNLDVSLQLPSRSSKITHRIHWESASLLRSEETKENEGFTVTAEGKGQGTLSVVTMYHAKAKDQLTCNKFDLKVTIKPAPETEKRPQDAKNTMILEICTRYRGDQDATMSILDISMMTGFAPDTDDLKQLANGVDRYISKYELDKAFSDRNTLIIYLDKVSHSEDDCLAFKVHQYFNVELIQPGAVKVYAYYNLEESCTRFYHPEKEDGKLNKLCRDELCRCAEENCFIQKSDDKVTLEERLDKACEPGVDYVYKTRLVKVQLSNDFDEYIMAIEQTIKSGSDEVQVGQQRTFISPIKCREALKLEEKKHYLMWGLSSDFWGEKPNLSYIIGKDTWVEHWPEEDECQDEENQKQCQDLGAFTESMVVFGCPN
Numbered stars: 1 amine (or outer) side, 2 acyl side, 3 side chain; on linkers, the order of the positions; unused ones are H or OH. Bridge positions count the residues as written; N and C are the ends. Square brackets hold non-standard residues; d marks the D form. Peptide text beside a SMILES is read from it. Trp(1-Me) = Cn1cc(C[C@H](N)C(=O)O)c2ccccc21; Abu(4-yl) = O=C([C@H](CC[*:3])N[*:1])[*:2]; NMeI = CC[C@H](C)[C@H](NC)C(=O)O; Sar = CNCC(=O)O
readout.type: kd

{"columns": ["molecule", "readout.type", "measured.value"],
 "data": [
  ["CC[C@H](C)[C@H](NC(C)=O)C(=O)N[C@H]1CSCC[C@@H](C(=O)N(C)[C@H](C(N)=O)[C@@H](C)CC)NC(=O)[C@H](CCCNC(=N)N)NC(=O)[C@H](Cc2c[nH]cn2)NC(=O)[C@H](C)NC(=O)CN(C)C(=O)[C@H](Cc2c[nH]c3ccccc23)NC(=O)[C@H](CC(=O)O)NC(=O)[C@H](CCC(N)=O)NC(=O)[C@H](Cc2cn(C)c3ccccc23)NC(=O)[C@H](C(C)C)NC1=O [Delta-Cth CP20] (Ac-ICV[Trp(1-Me)]QDW[Sar]AHR[Abu(4-yl)][NMeI]-NH2; thioether 2-12)", "kd", "1.5 ± 0.4 10^−2 s^−1"],
  ["CC[C@H](C)[C@H](NC(C)=O)C(=O)N[C@H]1CSSC[C@@H](C(=O)N(C)[C@H](C(N)=O)[C@@H](C)CC)NC(=O)[C@H](CCCNC(=N)N)NC(=O)[C@H](Cc2c[nH]cn2)NC(=O)[C@H](C)NC(=O)CN(C)C(=O)[C@H](Cc2c[nH]c3ccccc23)NC(=O)[C@H](CC(=O)O)NC(=O)[C@H](CCC(N)=O)NC(=O)[C@H](Cc2cn(C)c3ccccc23)NC(=O)[C@H](C(C)C)NC1=O [CP20, reference compound]", "kd", "0.4 ± 0.1 10^−2 s^−1"],
  ["CC[C@H](C)[C@H](NC(C)=O)C(=O)N[C@H]1CSCC[C@@H](C(=O)N[C@H](C(N)=O)[C@@H](C)O)NC(=O)[C@H](CCCNC(=N)N)NC(=O)[C@H](Cc2c[nH]cn2)NC(=O)[C@H](C)NC(=O)CNC(=O)[C@H](Cc2c[nH]c3ccccc23)NC(=O)[C@H](CC(=O)O)NC(=O)[C@H](CCC(N)=O)NC(=O)[C@H](Cc2c[nH]c3ccccc23)NC(=O)[C@H](C(C)C)NC1=O [Delta-Cth] (Ac-ICVWQDWGAHR[Abu(4-yl)]T-NH2; thioether 2-12)", "kd", "11 ± 1.9 10^−2 s^−1"]
]}

// lookup kd for CC[C@H](C)[C@H](NC(C)=O)C(=O)N[C@H]1CCSC[C@@H](C(=O)N[C@H](C(N)=O)[C@@H](C)O)NC(=O)[C@H](CCCNC(=N)N)NC(=O)[C@H](Cc2c[nH]cn2)NC(=O)[C@H](C)NC(=O)CNC(=O)[C@H](Cc2c[nH]c3ccccc23)NC(=O)[C@H](CC(=O)O)NC(=O)[C@H](CCC(N)=O)NC(=O)[C@H](Cc2c[nH]c3ccccc23)NC(=O)[C@H](C(C)C)NC1=O [Gamma-Cth] (Ac-I[Abu(4-yl)]VWQDWGAHRCT-NH2; thioether 2-12) 46.8 ± 5.7 10^−2 s^−1
